Values were extracted from PubChem BioAssay (NCI).

# Test system: SK-MEL-28 melanoma
# experiment_summary: NCI-60 one-dose screen, 48 h (100 = growth as untreated, 0 = no growth, -100 = all killed)
# condition_info: 10 µM unless noted
Compounds without any hit were thinned out: in the full panel of roughly 83,000, 20% have a hit.
Each entry below lists one item and its recorded growth value.
Record the value in %, omitting the unit from your answer.

Prompt line: What growth value was documented for this molecule, Fc1ccccc1C1c2ccccc2-c2nccn21 (stereo not given) ?
Response line: 109

Prompt line: What growth value was documented for this molecule, O=C1c2cccc(NCCN=Cc3ccccc3O)c2C(=O)c2c(NCCN=Cc3ccccc3O)cccc21 ?
Response line: 50.2

Prompt line: What growth value was documented for this molecule, Nc1ccn(C2O[C@H](CO)[C@@H](O)[C@@H]2O)c(=O)n1 (stereo not given in full) ?
Response line: 68.5

Prompt line: What growth value was documented for this molecule, COc1cc(-c2nnc(-c3nc(-c4cc(OC)c(OC)c(OC)c4)n4ccccc34)o2)ccc1N ?
Response line: 97.8

Prompt line: What growth value was documented for this molecule, O=C(c1ccccc1)c1ccc(Oc2ccc([N+](=O)[O-])cc2[N+](=O)[O-])cc1 ?
Response line: 101

Prompt line: What growth value was documented for this molecule, O=C(Nc1nn2c(-c3cc(C(F)(F)F)cc(C(F)(F)F)c3)nnc2s1)C1CCCC1 ?
Response line: 30.4

Prompt line: What growth value was documented for this molecule, NS(=O)(=O)c1cc2c(cc1Cl)NC=NS2(=O)=O ?
Response line: 108

Prompt line: What growth value was documented for this molecule, O=C(Nc1cccc(-n2cc(-c3ccncc3)c(-c3cc(O)cc(Cl)c3)n2)c1)Nc1ccc(Cl)c(Cl)c1 ?
Response line: -50.9

Prompt line: What growth value was documented for this molecule, CCCCN1c2nc3ccccc3cc2Sc2cc3ccccc3nc21 ?
Response line: 116

Prompt line: What growth value was documented for this molecule, COc1ccc2c(c1)sc1nc(-c3ccc(N(C)C)cc3)cn12 ?
Response line: 144

---

Each entry below lists one item and its recorded growth value.
# Test system: KM12 colon
# experiment_summary: NCI-60 one-dose screen, 48 h (100 = growth as untreated, 0 = no growth, -100 = all killed)
# condition_info: 10 µM unless noted
Compounds without any hit were thinned out: in the full panel of roughly 83,000, 20% have a hit. Activity calls are given as the source filed them. Rule for the calls: active = growth percent below 10; inactive = the rest.

Recorded results for 8 compounds are shown here.
> print(dat)
                               query.smiles  endpoint.name       assay.value
1  COC(=O)CC1=C(c2ccc([N+](=O)[O-])cc2)CCC1=O         growth   107% (inactive)
2  COC(=O)c1c(NC(=O)CSc2nnnn2-c2ccc(OC)cc2)sc(C)c1C         growth  98.7% (inactive)
3     CCCCCCCCCCCCCCCCNC(=O)Nc1ccc2ccccc2c1         growth   111% (inactive)
4  COc1cnc2c(c1)C(=O)c1c-2n(CCCNC(C)C)c(=O)c2cc(F)ccc12         growth   -17.7% (active)
5  N#Cc1ccc(-c2csc(Nc3ccc4nc5n(c(=O)c4c3)CCC5)n2)cc1         growth   103% (inactive)
6  Cc1cc(C)nc(NS(=O)(=O)c2ccc(Nc3nc4nc(SCc5ccccc5)nc(-c5ccc(O)cc5)c4c(=O)[nH]3)cc2)n1         growth   107% (inactive)
7  COc1ccc(Cl)cc1Nc1nc(C(F)(F)F)ccc1C(=O)N/N=C/c1c(Cl)cccc1Cl         growth  52.7% (inactive)
8  N#Cc1c(-c2ccccc2)cc(-c2ccccc2)n(CC(=O)O)c1=O         growth  41.3% (inactive)

Prompt line: What growth value was documented for this compound, NS(=O)(=O)N(c1cc(C(F)(F)F)cc(C(F)(F)F)c1)C1CCN(Cc2ccc(C(F)(F)F)cc2)CC1 ?
Response line: 12.9% (inactive)

Prompt line: What growth value was documented for this compound, CCCCc1ccc(C(N)=O)nc1 ?
Response line: 100% (inactive)
